These entries and their values trace back to the Deep4Chem optical property database.

- experiment.description: solvent given as SMILES
- condition.notes: in C1CCOC1
measurement.kind: absorption maximum (nm)

[[record]]
entry_smiles = "COc1cc2oc(=O)c3c4ccc(C=O)cc4c4ccc5cccc6c(c1)c2c3c4c56"
measurement_kind = "absorption maximum"
unit_abbrev = "nm"
measured = 425

[[record]]
entry_smiles = "Cc1ccc2occ(CC(=O)NN)c2c1"
measurement_kind = "absorption maximum"
unit_abbrev = "nm"
measured = 292

[[record]]
entry_smiles = "COc1ccc(-n2c3ccccc3c3cc(/C=C/C(=C(C#N)C#N)c4ccccc4)ccc32)cc1"
measurement_kind = "absorption maximum"
unit_abbrev = "nm"
measured = 448

[[record]]
entry_smiles = "CCCCn1c2ccccc2c2c1c1c3ccccc3n(CCCC)c1c1c3ccccc3n(CCCC)c21"
measurement_kind = "absorption maximum"
unit_abbrev = "nm"
measured = 316

[[record]]
entry_smiles = "CCCCCCCCCCn1nnc(-c2ccc(C#Cc3ccc(C#Cc4ccc(-c5nnn(CCCCCCCCCC)n5)cc4)c4nc5c6ccccc6c6ccccc6c5nc34)cc2)n1"
measurement_kind = "absorption maximum"
unit_abbrev = "nm"
measured = 428

